Target: KRAS(G12D)/SOS1 (Homo sapiens, UniProt P01116, G12D)
Sequence (P01116 1-188 isoform P01116-2 G12D): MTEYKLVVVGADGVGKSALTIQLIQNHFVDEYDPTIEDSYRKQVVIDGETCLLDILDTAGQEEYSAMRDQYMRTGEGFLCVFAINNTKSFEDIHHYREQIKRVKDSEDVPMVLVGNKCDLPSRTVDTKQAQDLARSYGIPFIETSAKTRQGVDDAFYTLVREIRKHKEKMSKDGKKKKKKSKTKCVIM
Test: KRAS(G12D)/SOS1 homogeneous time-resolved fluorescence (HTRF) assay
Settings: absence of GTP; 4° C., 3 hr
pIC50: −log10 of the molar value.
Recorded measurements of pIC50, one per entry

| compound | pIC50 |
| --- | --- |
| C#Cc1cccc2cccc(-c3ncc4c(N5CC6CCC(C5)N6)nc(OC[C@@H]5C[C@H](N6CCN(Cc7ccc(-n8c(O)nnc8-c8cc(C(C)C)c(O)cc8O)cc7)CC6)CN5C)nc4c3F)c12 [Compound 26] | > 7.00 |
| CCc1cc(-c2nnc(C(=O)NCC(F)(F)F)n2-c2ccc(CN3CCN([C@H]4C[C@@H](COc5nc(N6CC7CCC(C6)N7)c6cnc(-c7cccc(F)c7C)c(F)c6n5)N(C)C4)CC3)cc2)c(O)cc1O [Compound 79] | < 6.00 |
| C#Cc1cccc2cccc(-c3ncc4c(N5CC6CCC(C5)N6)nc(OCCN5CCN(Cc6ccc7c(c6)CN(C(=O)c6cc(C(C)C)c(O)cc6O)C7)CC5)nc4c3F)c12 [Compound 14] | 6.00 to 7.00 |
| CCNC(=O)c1nnc(-c2cc(C(C)C)c(O)cc2O)n1-c1ccc(CN2CCN(C(=O)C3CCN([C@H]4C[C@@H](COc5nc(N6CC7CCC(C6)N7)c6cnc(-c7cccc8cccc(Cl)c78)c(F)c6n5)N(C)C4)CC3)CC2)cc1 [Compound 6] | 6.00 to 7.00 |

----------
System: AGS gastric carcinoma cells [heterozygous G12D]
Assay: Cancer cell line proliferation (CellTiter-Glo), AGS
Format: cell-based
Settings: Homo sapiens, 72 hr treatment, read-out: AGS CTG (EC50)
pEC50: −log10 of the molar value.

| molecule | pEC50 |
| --- | --- |
| CC(C)c1cc(C(=O)N2Cc3ccc(CN4CCC(CN5CCN(CC6(COc7nc(N8CC9CCC(C8)N9)c8cnc(-c9cc(O)cc%10ccccc9%10)c(F)c8n7)CC6)CC5)CC4)cc3C2)c(O)cc1O | 6.00 to 7.00 |
| C#Cc1cccc2cccc(-c3ncc4c(N5CC6CCC(C5)N6)nc(OCCN5CCN(CCN(CC)C(=O)c6cc(C(C)C)c(O)cc6O)CC5)nc4c3F)c12 | < 6.00 |
| CC(C)NC(=O)c1nnc(-c2cc(C(C)C)c(O)cc2O)n1-c1ccc(CN2CCN([C@H]3C[C@@H](COc4nc(N5CC6CCC(C5)N6)c5cnc(-c6ccccc6C(F)(F)F)c(F)c5n4)N(C)C3)CC2)cc1 | > 7.00 |
| CCNC(=O)c1nnc(-c2cc(C(C)C)c(O)cc2O)n1-c1ccc(CN2CCN([C@H]3C[C@@H](COc4nc(N5CC6CCC(C5)N6)c5cnc(-c6cc(O)cc7ccccc67)c(F)c5n4)N(C)C3)CC2)cc1 | 6.00 to 7.00 |
| CC(C)c1cc(-c2nnc(O)n2-c2ccc(CN3CCN([C@H]4C[C@@H](COc5nc(N6CC7CCC(C6)N7)c6cnc(-c7cc(O)cc8ccccc78)c(F)c6n5)N(C)C4)CC3)cc2)c(O)cc1O | 6.00 to 7.00 |
| CCNC(=O)c1nnc(-c2cc(C(C)C)c(O)cc2O)n1-c1ccc(CN2CCN(C[C@H]3CC[C@@H](COc4nc(N5CC6CCC(C5)N6)c5cnc(-c6cc(O)cc7ccccc67)c(F)c5n4)N3C)CC2)cc1 | > 7.00 |
| C#Cc1cccc2cccc(-c3ncc4c(N5CC6CCC(C5)N6)nc(OCC5(CN6CCN(Cc7ccc(-n8c(C(=O)NC(C)C(F)(F)F)nnc8-c8cc(C(C)C)c(O)cc8O)cc7)CC6)CC5)nc4c3F)c12 (stereo not shown) | 6.00 to 7.00 |

----------
Test system: AGS gastric carcinoma cells [heterozygous G12D]
Test: Cancer cell line proliferation (CellTiter-Glo), AGS
Format: cell-based
Conditions: Homo sapiens, 72 hr treatment, read-out: AGS CTG (EC50)

| compound | EC50 |
| --- | --- |
| C#Cc1c(F)ccc2cc(O)cc(-c3ncc4c(N5CC6CCC(C5)N6)nc(OCC5(CN6CCC(C7CCN(Cc8ccc(-n9c(C(=O)NC(C)C(F)(F)F)nnc9-c9cc(C(C)C)c(O)cc9O)cc8)CC7)CC6)CC5)nc4c3F)c12 (stereo not drawn) | < 100 nM |
| C#Cc1cccc2cc(O)cc(-c3ncc4c(N5CC6CCC(C5)N6)nc(OCC5(CN6CCN(CC7CCN(Cc8ccc(-n9c(C(=O)NCC(F)(F)F)nnc9-c9cc(C(C)C)c(O)cc9O)cc8)CC7)CC6)CC5)nc4c3F)c12 | < 100 nM |
| C#Cc1c(F)ccc2cc(O)cc(-c3ncc4c(N5CC6CCC(C5)N6)nc(OCc5ccc6c(c5)CN(C(=O)c5cc(C(C)C)c(O)cc5O)C6)nc4c3F)c12 | 100 to 1000 nM |

# credit: patent US20260070929A1
